Every entry's value here was drawn from patent US9458176B2.

# Measurement Target: human mGluR2 (Homo sapiens (Human), UniProt Q14416)
# Sequence (Q14416 19-872): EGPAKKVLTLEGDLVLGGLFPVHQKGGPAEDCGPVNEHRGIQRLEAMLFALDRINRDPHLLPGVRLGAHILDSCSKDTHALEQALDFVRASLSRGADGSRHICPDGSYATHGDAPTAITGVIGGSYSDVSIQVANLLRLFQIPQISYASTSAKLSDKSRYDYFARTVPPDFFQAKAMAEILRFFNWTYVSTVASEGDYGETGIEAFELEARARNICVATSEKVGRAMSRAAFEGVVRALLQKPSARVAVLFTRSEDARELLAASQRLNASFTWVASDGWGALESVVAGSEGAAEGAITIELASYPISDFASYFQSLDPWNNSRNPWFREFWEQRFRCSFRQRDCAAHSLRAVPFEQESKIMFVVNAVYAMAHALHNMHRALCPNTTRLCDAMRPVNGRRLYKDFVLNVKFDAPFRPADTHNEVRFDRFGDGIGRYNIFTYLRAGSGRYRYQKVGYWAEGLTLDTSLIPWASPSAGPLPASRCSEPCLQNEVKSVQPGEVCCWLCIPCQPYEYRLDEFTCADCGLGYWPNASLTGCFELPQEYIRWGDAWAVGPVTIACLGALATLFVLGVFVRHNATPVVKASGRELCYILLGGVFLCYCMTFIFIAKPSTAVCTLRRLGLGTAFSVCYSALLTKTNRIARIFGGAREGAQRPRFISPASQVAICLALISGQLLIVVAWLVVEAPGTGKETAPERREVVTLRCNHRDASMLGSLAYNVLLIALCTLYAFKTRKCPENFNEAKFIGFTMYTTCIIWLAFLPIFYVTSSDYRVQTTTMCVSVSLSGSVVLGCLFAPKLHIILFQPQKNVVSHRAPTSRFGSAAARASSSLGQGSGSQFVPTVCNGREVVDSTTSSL
# Assay Remarks: [35S]GTPγS binding assay (Affinity to mGluR2)
# Assay type: biochemical
# Setup Conditions: cell membrane fraction of HEK293 cells stably expressing human mGluR2; glutamic acid 10 μM
pIC50: −log10 of the molar value.
Measure Name: pIC50

Example compounds with recorded pIC50:
Cc1cc(-c2nc(-c3ccc(Cl)c(C)c3)n3c2CCO[C@H](C)C3)cc(C)n1 [Example 52]    7.69
Cc1cc(-c2nc(-c3ccc(OC(F)(F)F)c(CF)c3)n3c2CCO[C@H](C)C3)ccn1 [Example 39]    8.60
Cc1cc(-c2nc(-c3ccc(Cl)c(C)c3)n3c2CCO[C@H](C)C3)cc(CF)n1 [Example 88]    7.78

I: Cc1cc(-c2nc(-c3ccc(F)c(OCC(F)F)c3)n3c2CCOCC3)cc(C)n1 [Example 92]
II: Cc1cc(-c2nc(-c3ccc(C(F)(F)F)c(C)c3)n3c2CCOCC3)cc(C)n1 [Example 113]
III: COc1cc(-c2nc(-c3ccnc(C)c3)c3n2C[C@@H](CF)OCC3)ccc1OC(F)(F)F [Example 17]
Sort entries by pIC50 from minimum to maximum value. Rank them, then answer with their labels in that order. I, II, III

a: Cc1cc(-c2nc(-c3ccc(OC4CC4)c(C)c3)n3c2CCO[C@H](CF)C3)cc(C)n1 [Example 22]
b: Cc1cc(-c2nc(-c3ccc(C(F)(F)F)c(F)c3)n3c2CCOCC3)cc(C)n1 [Example 107]
Compare the recorded pIC50 of a and b ; state which is larger. Please indicate the selected item by its label. a
(a: 8.39, b: 7.27)
